B1: Neutrophil cytosol factor 2, residues 456 to 514; numbered along this chain, P19878 (parent)
chain: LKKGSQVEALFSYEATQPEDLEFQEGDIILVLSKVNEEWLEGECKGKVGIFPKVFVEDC

Variants of: B1
method description: abundance fitness (aPCA) (normalised: wild type 0, dead -1); higher = more abundant; growth selection in yeast, the domain comes from the species named
condition description: Homo sapiens
Assign class by abundance fitness: not lower than -0.3 means YES; lower than -0.3 means NO.

1. L21I    YES

**Q:** Quick check, abundance fitness >= -0.3? E37S
**A:** NO

**Q:** Entry to check: T16F
**A:** NO
